Biological target: T1, 重组人PLVAP/PV-1蛋白 (human, UniProt Q9BX97 49-442, limits assumed)
T1 construct: Bought reagent (Abcam); Coupled to a CM5 chip in the SPR assay; also called 质膜膜泡关联蛋白
T1 sequence (looked up): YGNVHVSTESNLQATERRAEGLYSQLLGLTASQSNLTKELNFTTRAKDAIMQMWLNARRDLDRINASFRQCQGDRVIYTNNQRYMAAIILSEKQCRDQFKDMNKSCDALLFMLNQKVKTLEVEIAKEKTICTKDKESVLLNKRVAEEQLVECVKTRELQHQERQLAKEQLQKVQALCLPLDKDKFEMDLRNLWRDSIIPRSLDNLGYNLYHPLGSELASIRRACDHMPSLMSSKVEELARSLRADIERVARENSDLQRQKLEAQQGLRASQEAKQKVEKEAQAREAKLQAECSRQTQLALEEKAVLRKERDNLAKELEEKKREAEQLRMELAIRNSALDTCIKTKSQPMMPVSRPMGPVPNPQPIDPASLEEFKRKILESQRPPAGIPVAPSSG
Assay: SPR, Biacore T200, PV-1 coupled to CM5 chip, antibody as analyte, 25℃, 1:1 fit
Quick reference for 倍数 (fold against HLPV-P00) among some binders
Expressed in fold, but write only the number.

BINDER | 倍数 (fold against HLPV-P00) [fold]
HLPV-P08 (antibody, IgG1, V domains shown, Full IgG1/kappa antibody; not shown: human IgG1 heavy chain constant region, UniProtKB P01857.1; human Kappa light chain constant region, UniProtKB P01834.2) VH: QVQLVQSGAEVKKPGASVKVSCKASGYTFTDYYMYWVRQAPGQGLEWIGEINPTQGDVNFNEMFKSRVTMTVDTSTSTAYMELSSLRSEDTAVYYCTTIFYWGQGTLVTVSS VL: DIVMTQSPSSLSASVGDRVTITCKASQDIKYQLTWYQQKPGKAPKTLIYYATDLADGVPSRFSGSGSGQEFTLTISSLQPEDFATYYCVSHDDRPFTFGQGTKLEIK | 38.4

Consider now this further binder.
Query: # query: 倍数 (fold against HLPV-P00) of entry HLPV-P10 (antibody, IgG1, V domains shown, Full IgG1/kappa antibody; not shown: human IgG1 heavy chain constant region, UniProtKB P01857.1; human Kappa light chain constant region, UniProtKB P01834.2) VH: QVQLVQSGAEVKKPGASVKVSCKASGYTFTDYYMYWVRQAPGQGLEWIGEINPTQGDVNFNEMFKSRVTMTVDTSTSTAYMELSSLRSEDTAVYYCTSIFYWGQGTLVTVSS VL: DIVMTQSPSSLSASVGDRVTITCKASQDIKYQLTWYQQKPGKAPKTLIYYATDLADGVPSRFSGSGSGQEFTLTISSLQPEDFATYYCVQHSDRPFTFGQGTKLEIK
Response: 23.4
